From: patent EP4682166A1

Catalogue of binders with associated OD450
Target: T1, human NMI (N-myc Interacting protein) (human, UniProt Q13287 1-307, limits assumed)
T1 construct: Immunogen and ELISA coating antigen; also called hNMI; antigen 1
T1 sequence (looked up): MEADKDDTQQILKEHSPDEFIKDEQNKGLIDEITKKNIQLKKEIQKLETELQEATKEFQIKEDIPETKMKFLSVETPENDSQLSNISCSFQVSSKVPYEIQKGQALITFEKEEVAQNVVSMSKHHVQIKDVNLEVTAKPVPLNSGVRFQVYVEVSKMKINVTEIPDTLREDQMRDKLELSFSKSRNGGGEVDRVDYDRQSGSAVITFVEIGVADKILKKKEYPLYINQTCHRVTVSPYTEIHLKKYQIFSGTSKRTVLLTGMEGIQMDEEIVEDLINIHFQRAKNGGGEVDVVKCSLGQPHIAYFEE
Test: I-ELISA, hNMI coated 1 ug/mL; antibody 78.125 ng/mL
Report the figure in OD450 without appending any unit label.

Recorded results for 3 binders are shown here.
39B4 (antibody, V domains shown, Rabbit monoclonal antibody; also called 39B4-1; 39B4-1-biotin (biotin-labelled form)) VH: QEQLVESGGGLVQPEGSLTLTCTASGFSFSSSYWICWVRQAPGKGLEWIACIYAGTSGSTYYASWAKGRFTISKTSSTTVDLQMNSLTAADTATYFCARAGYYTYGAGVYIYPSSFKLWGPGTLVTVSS VL: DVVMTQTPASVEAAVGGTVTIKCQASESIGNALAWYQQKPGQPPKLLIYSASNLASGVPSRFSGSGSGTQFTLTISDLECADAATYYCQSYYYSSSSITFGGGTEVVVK | 1.43
B-8 (antibody, V domains shown, Rabbit monoclonal antibody; also called B8-1; B-8-biotin (biotin-labelled form)) VH: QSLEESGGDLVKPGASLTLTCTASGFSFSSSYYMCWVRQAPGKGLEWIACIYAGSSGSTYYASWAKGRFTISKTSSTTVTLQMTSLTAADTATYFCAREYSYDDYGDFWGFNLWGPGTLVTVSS VL: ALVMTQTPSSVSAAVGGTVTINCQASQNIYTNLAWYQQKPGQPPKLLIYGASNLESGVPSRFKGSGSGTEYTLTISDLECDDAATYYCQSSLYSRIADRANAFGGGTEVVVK | 1.26
240B10-1 (antibody, V domains shown, Rabbit monoclonal antibody; also called 240B10-1-biotin (biotin-labelled form)) VH: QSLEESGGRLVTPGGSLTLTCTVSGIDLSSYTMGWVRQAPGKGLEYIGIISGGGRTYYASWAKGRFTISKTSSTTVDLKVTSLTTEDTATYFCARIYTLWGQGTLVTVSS VL: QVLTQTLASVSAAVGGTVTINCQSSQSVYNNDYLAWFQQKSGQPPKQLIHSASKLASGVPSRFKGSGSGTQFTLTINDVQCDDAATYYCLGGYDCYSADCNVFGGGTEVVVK | 1.46

Here is the next item to consider.
Which OD450 is listed for 98G10 (antibody, V domains shown, Rabbit monoclonal antibody; also called 98G10-1; 98G10-1-biotin (biotin-labelled form)) VH: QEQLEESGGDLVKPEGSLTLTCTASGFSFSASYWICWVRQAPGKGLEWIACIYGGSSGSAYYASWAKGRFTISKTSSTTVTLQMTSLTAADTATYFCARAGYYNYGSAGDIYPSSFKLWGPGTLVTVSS VL: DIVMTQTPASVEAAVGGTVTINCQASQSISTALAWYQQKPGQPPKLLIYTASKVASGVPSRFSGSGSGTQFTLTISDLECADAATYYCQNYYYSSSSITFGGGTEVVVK ?
1.18
